Test system: ATP synthesis
testDetails: luciferin-luciferase assay of mitochondrial ATP
Type: cell-based
experimentalContext: living cells, basal conditions and following Ca2+-dependent stimulus
reportedMetric: proton flow and ATP synthesis / ATP levels

compound	result
Cc1ccc(S(=O)(=O)N2CCC3(CC2)C(=O)NCN3c2ccccc2)cc1 [compound 1]	significantly inhibited
CC[C@H]1/C=C/C=C/C[C@@H](C)[C@H](O)[C@@](C)(O)C(=O)[C@@H](C)[C@H](O)[C@@H](C)C(=O)[C@@H](C)[C@H](O)[C@@H](C)/C=C/C(=O)O[C@@H]2[C@H](C)[C@H](CC1)O[C@]1(CC[C@H](C)[C@H](C[C@@H](C)O)O1)[C@H]2C [Oligomycin, reference compound]	significantly inhibited

Values were extracted from patent EP3829579B1.
